- assay_target: T1, human LAP-TGFB1 Fc fusion (human)
- T1 construct: also called human LAP-TGFβ1-Fc; human LAP-TGFβ-Fc isoform 1
- T1 sequence (chain, as listed by the source limits assumed): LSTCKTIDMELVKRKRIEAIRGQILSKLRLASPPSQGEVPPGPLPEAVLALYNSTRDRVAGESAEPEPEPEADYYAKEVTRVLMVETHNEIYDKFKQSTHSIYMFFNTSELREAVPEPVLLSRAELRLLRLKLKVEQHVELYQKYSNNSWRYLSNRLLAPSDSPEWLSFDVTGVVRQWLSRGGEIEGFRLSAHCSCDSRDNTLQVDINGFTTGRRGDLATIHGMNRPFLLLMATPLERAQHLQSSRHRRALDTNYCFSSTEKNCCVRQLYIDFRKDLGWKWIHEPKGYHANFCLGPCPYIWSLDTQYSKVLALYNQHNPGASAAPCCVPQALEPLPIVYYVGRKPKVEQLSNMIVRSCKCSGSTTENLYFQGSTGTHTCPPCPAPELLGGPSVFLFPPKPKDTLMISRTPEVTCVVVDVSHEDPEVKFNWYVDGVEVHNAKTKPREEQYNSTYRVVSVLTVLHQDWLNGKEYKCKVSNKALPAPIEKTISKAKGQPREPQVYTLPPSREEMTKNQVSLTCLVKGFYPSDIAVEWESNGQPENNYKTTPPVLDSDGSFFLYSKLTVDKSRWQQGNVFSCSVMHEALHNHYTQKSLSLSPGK
- assay_remarks: SPR pH 7.4, antigen-Fc captured, Fab analyte
Measured Kd values are reported for all entries that follow.

binder	unit_string	Kd
57BLH (Fab, V domains shown, also called 09BLM Fab) VH: EVQLVQSGAEVKKPGASVKVSCKASGYTFTSYDMHWVRQAPGQGLEWMGRIDPISGGIKYAQKFQGRATLTVDTSTSTAYMELSRLRSDDTAVYYCARWDYGGYFDVWGQGTLVTVSS VL: DIQMTQSPSSLSASVGDRVTITCRASQDIFNYLNWYQQKPGKAVKLLIYYTSHLETGVPSRFSGSGSGTDYTLTISSLQPEDFATYFCQQGDTLPWTFGQGTKLEIK	nM	0.081
60BLH (Fab, V domains shown, also called 12BLM Fab) VH: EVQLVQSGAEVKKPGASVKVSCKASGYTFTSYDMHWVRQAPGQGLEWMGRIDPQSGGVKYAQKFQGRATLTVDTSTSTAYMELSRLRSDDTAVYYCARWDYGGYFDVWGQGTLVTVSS VL: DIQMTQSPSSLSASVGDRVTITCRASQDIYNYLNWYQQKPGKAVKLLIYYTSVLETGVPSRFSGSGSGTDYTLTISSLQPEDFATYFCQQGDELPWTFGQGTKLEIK	nM	0.024
56BLH (Fab, V domains shown, also called 08BLM Fab) VH: EVQLVQSGAEVKKPGASVKVSCKASGYTFTSYDMHWVRQAPGQGLEWMGRIDPQSGGTKYAQKFQGRATLTVDTSTSTAYMELSRLRSDDTAVYYCARWDYGGQFDVWGQGTLVTVSS VL: DIQMTQSPSSLSASVGDRVTITCRASQDIYNYLNWYQQKPGKAVKLLIYYTSGLETGVPSRFSGSGSGTDYTLTISSLQPEDFATYFCQQGDTLPWTFGQGTKLEIK	nM	0.006
